I'd be grateful if you could share measured % Parent remaining after incubation with CatB, T = 24 h for these entries.
Target: UniProt P07858
Assay: Cathepsin B (CatB) cleavage assay
Assay type: biochemical
Conditions: norfloxacin linker compounds; 24 h
Experimental: 15 μL of test compound solution (2 mM in DMSO) was added to the incubation plate in duplicate. 30 μL of Cathepsin B stock solution (16 μM) was pre-activated with 1500 μL activation buffer for 10 min at room temperature. The Cathepsin B solution was diluted in 13.17 mL water, then 735 μL activatived enzyme mixture was added to the incubation plate. The mixture was incubated at 37° C. in a waterbath. […] The samples were mixed and centrifuged at 4000 rpm for 20 min. […]
Write the answer as a number in %, unit excluded.

Problem: Could you share which % Parent remaining after incubation with CatB, T = 24 h value was measured for CCn1cc(C(=O)O)c(=O)c2cc(F)c(N3CCN(C(=O)OCc4ccc(NC(=O)[C@H](CCNC(=N)NC)NC(=O)[C@@H](NC(=O)CCCC(=O)N(C)C)C(C)C)cc4)CC3)cc21 [BCY9477] ?
Result: 0

Problem: // % Parent remaining after incubation with CatB, T = 24 h lookup, key: CCn1cc(C(=O)O)c(=O)c2cc(F)c(N3CCN(C(=O)OCc4ccc(NC(=O)[C@H](CCCNC(N)=O)NC(=O)[C@@H](NC(=O)CCCC(=O)N(C)C)C(C)C)cc4)CC3)cc21 [BCY9422, reference compound]
Result: 0

Problem: State the recorded % Parent remaining after incubation with CatB, T = 24 h for this entry: CCn1cc(C(=O)O)c(=O)c2cc(F)c(N3CCN(C(=O)OCc4ccc(NC(=O)[C@H](CNC(=N)N)NC(=O)[C@@H](NC(=O)CCCC(=O)N(C)C)C(C)C)cc4)CC3)cc21 [BCY10300]
Result: 0

Problem: Fill in the blank: the reported % Parent remaining after incubation with CatB, T = 24 h of CCn1cc(C(=O)O)c(=O)c2cc(F)c(N3CCN(C(=O)OCc4ccc(NC(=O)[C@H](CCCNC(N)=O)NC(=O)[C@@H](NC(=O)[C@H](CCC(=O)O)NC(=O)CCCC(=O)N(C)C)C(C)C)cc4)CC3)cc21 [BCY9696] is ____.
Result: 0

Problem: For CCn1cc(C(=O)O)c(=O)c2cc(F)c(N3CCN(C(=O)OCc4ccc(NC(=O)[C@H](CCN)NC(=O)[C@@H](NC(=O)CCCC(=O)N(C)C)C(C)C)cc4)CC3)cc21 [BCY9474] , what is its reported % Parent remaining after incubation with CatB, T = 24 h?
Result: 0

Problem: Which % Parent remaining after incubation with CatB, T = 24 h is reported for this molecule? CCn1cc(C(=O)O)c(=O)c2cc(F)c(N3CCN(C(=O)OCc4ccc(NC(=O)[C@H](CCN)NC(=O)[C@@H](NC(=O)[C@H](CCC(=O)O)NC(=O)CCCC(=O)N(C)C)C(C)C)cc4)CC3)cc21 [BCY10122]
Result: 0

Problem: Field request: % Parent remaining after incubation with CatB, T = 24 h | item: CCn1cc(C(=O)O)c(=O)c2cc(F)c(N3CCN(C(=O)OCc4ccc(NC(=O)[C@H](CCNC(=N)N)NC(=O)[C@@H](NC(=O)[C@H](CCC(=O)O)NC(=O)CCCC(=O)N(C)C)C(C)C)cc4)CC3)cc21 [BCY9695]
Result: 0

Problem: Requested read-out: % Parent remaining after incubation with CatB, T = 24 h. Entry: CCn1cc(C(=O)O)c(=O)c2cc(F)c(N3CCN(C(=O)OCc4ccc(NC(=O)[C@H](CN)NC(=O)[C@@H](NC(=O)CCCC(=O)N(C)C)C(C)C)cc4)CC3)cc21 [BCY10298]
Result: 6

Problem: I am curious: what % Parent remaining after incubation with CatB, T = 24 h value has been reported for CCn1cc(C(=O)O)c(=O)c2cc(F)c(N3CCN(C(=O)OCc4ccc(NC(=O)[C@H](CCNC(=N)N)NC(=O)[C@@H](NC(=O)CCCC(=O)N(C)C)C(C)C)cc4)CC3)cc21 [BCY9423] ?
Result: 0

Problem: So what's the measured % Parent remaining after incubation with CatB, T = 24 h for this one? CCn1cc(C(=O)O)c(=O)c2cc(F)c(N3CCN(C(=O)OCc4ccc(NC(=O)[C@H](CN)NC(=O)[C@@H](NC(=O)[C@H](CCC(=O)O)NC(=O)CCCC(=O)N(C)C)C(C)C)cc4)CC3)cc21 [BCY10297]
Result: 0
